- experimental details: NCI Yeast Anticancer Drug Screen. Data for the bub3 strain (AID 167)
- particulars: S. cerevisiae bub3 mutant strain, at 50.0 µM
About 79,000 compounds went through this panel and 15% of them were active in at least one assay; those are over-represented in the sample as a whole. Active and inactive are the calls of the source. Cut-off read from the data, not from the text of the source: active = growth inhibition above about 70%; inactive = the rest.
Give one outcome, nothing more. List: active, inactive

Some solved cases for reference:
compound	assigned label
CCc1nc(N)nc(N)c1-c1ccc(NCCN)c(N)c1	inactive
CCCCCCCCCCCCCCCC(=O)OCC1OC(OC2(COC(=O)CCCCCCCCCCCCCCC)OC(COC(=O)CCCCCCCCCCCCCCC)C(OC(=O)CCCCCCCCCCCCCCC)C2OC(=O)CCCCCCCCCCCCCCC)C(OC(=O)CCCCCCCCCCCCCCC)C(OC(=O)CCCCCCCCCCCCCCC)C1OC(=O)CCCCCCCCCCCCCCC (stereo unspecified)	inactive
Cc1ccc(C)c(NCc2ccccc2)c1	inactive
O=COCCc1ccccc1	inactive
CC1(C)Oc2ccc3ccccc3c2C(c2ccc(O)cc2)=C1c1ccccc1	inactive

// query Look up the recorded call for CC(=O)OC1CCC2(C)C(CCC3C2CCC2(C)C3CC3OC(CCC(C)CO)C(C)C32)C1 (stereo unspecified) in this test.
// result inactive

// query Repeat with CN(c1nc(=[N+](C)C)ss1)C1CCCCC1
// result inactive

// query Repeat with CC(=O)O[C@@H]1[C@H]2[C@@H](OC(=O)c3ccccc3)[C@@H](C)C[C@]2(O)[C@H](OC(C)=O)[C@@]2(C)[C@@H]3C[C@@](C)(OC(C)=O)C[C@@H](OC(C)=O)[C@@]3(OC(C)=O)C[C@@]12C
// result inactive

// query Repeat with CCOC(=O)C1(C)CCc2sc(N)c(C#N)c21 (stereo unspecified)
// result inactive

====

growth inhibition listing for selected molecules.
- experimental details: NCI Yeast Anticancer Drug Screen. Data for the mec2-1 strain (AID 157)
- particulars: S. cerevisiae mec2-1 strain, at 50.0 µM, hits give high values
About 79,000 compounds went through this panel and 15% of them were active in at least one assay; those are over-represented in the sample as a whole. Active and inactive are the calls of the source. Cut-off read from the data, not from the text of the source: active = growth inhibition above about 70%; inactive = the rest.

A selection of reference data follows.
molecule	growth inhibition
O=C(CCN1CCCC1)c1ccccc1	-15.1% (inactive)
CCOCCN(CCOCC)c1ncnc2[nH]ncc12	5.15% (inactive)
c1ccc(-c2cccc(-c3cccc(-c4ccccc4)c3)c2)cc1	0.6% (inactive)
O=C(CC(=O)c1ccc(Cl)s1)C(=O)NC1C2CC3CC(C2)CC1C3 (configuration not stated)	15.9% (inactive)
CCOC(=O)C(C)(C)Oc1ccc(N=[N+]=[N-])cc1	9.15% (inactive)
C[N+](C)(C)Cc1cc2ccccc2c2ccccc12	-8.9% (inactive)

// query Param item = Cc1cccc(C)c1NC(=O)/C(=N/NC(N)=S)C(C)C(=O)c1ccc(Cl)cc1 (configuration not stated) ; retrieve measured growth inhibition.
// result 6.35% (inactive)

// query Repeat with COc1ccc(CN2CCCN(Cc3ccc(OC)cc3OC)C2c2ccccc2)c(OC)c1
// result 6.9% (inactive)

// query Repeat with COc1ccccc1C1OC(C)C(C)O1 (configuration not stated)
// result -10.7% (inactive)

// query Repeat with CC(C)C1OC(c2ccccc2)OCC1(C)C (configuration not stated)
// result -18.2% (inactive)

// query Repeat with CS(=O)(=O)OC1CC/C=C\CCC1OS(C)(=O)=O (configuration not stated)
// result 14.5% (inactive)

// query Repeat with CC(C)C1OC2(C)OC(=N)C1(C#N)C(C#N)(C#N)C2C (configuration not stated)
// result 2.2% (inactive)

====

- experimental details: NCI Yeast Anticancer Drug Screen. Data for the cln2 rad14 strain (AID 165);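 note: 0% = growth equal to vehicle treated cultures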
- particulars: S. cerevisiae cln2 rad14 strain, at 50.0 µM, hits give high values
The panel holds about 79,000 compounds, 15% with a hit somewhere; the sample as a whole holds those more often.
quantity name: growth inhibition (%)
# output: bare number, implied unit %

compound	unit	growth inhibition
COc1ccc(Cc2cc3c(cc2OCC(=O)Nc2ccccn2)OCO3)cc1	%	19.3
CCCCCCCCCCCC(=O)OCC1OC(n2cc(F)c(=O)[nH]c2=O)C(NC(=O)OCc2ccccc2)C(O)C1O (configuration not stated)	%	18.8

// query Param item = COc1ccccc1NC1Oc2cc3c(cc2C(c2cc(OC)c(OC)c(OC)c2)C1C)OCO3 (configuration not stated) ; retrieve measured growth inhibition.
// result -0.85

====

- experimental details: NCI Yeast Anticancer Drug Screen. Data for the mlh1 rad18 strain (AID 175)
- particulars: S. cerevisiae mlh1 rad18 strain growth inhibition; at 50.0 µM; hits give high values
Compounds without any hit were thinned out: in the full panel of roughly 79,000, 15% have a hit.
growth inhibition listing for selected compounds.
# output: bare number, implied unit %

A selection of reference data follows.
compound	quantity name	recorded measurement
Cc1c(C2CCSc3ccccc3N2)sc2ccccc12 (stereo not given)	growth inhibition	7.2
COc1cc2c(cc1OC)[C@H]1C(COC(=O)Nc3ccccc3)CN1CC2 (stereo not given in full)	growth inhibition	-49.1
Clc1cnc2ccccc2c1	growth inhibition	28.8
CSc1ccc(NC(=O)CCc2ccccc2)cc1	growth inhibition	24.1
C=C1C[C@]23CC[C@@H]4C(CO)(CO)CC(=O)C[C@]4(C)[C@@H]2C(O)C[C@H]1C3 (stereo not given in full)	growth inhibition	30.9

We now examine a further compound.
// query Param item = COc1ccc2c(c1)C1=C(CC2)C(=O)OC1=O ; retrieve measured growth inhibition.
// result -4.85

====

- experimental details: NCI Yeast Anticancer Drug Screen. Data for the mlh1 rad18 strain (AID 175)
- particulars: S. cerevisiae mlh1 rad18 strain growth inhibition; at 50.0 µM; hits give high values
- Procedure: Growth inhibition of yeast strains with defined genetic alterations is measured as a screen for potential anti-cancer activity. Selected strains with alterations in DNA damage repair or cell cycle control were exposed to compounds and growth inhibition was measured relative to vehicle treated controls. The strain used in this assay is mlh1 rad18
This is part of a sample that, as a whole, favours compounds with a hit. Of some 79,000 tested, about 15% had one in any assay.
growth inhibition listing for selected compounds.
# output: bare number, implied unit %

A selection of reference data follows.
compound	recorded measurement
C=CCOC1OC(CO)C(O)C(O)C1O (centres undefined)	9.35
CCOC(=O)C(C)(OCC)OCC	11.9
CCCCCC(=O)N1CCCCC1CC (centres undefined)	-28.1
N#CNc1c2ccccc2nc2ccccc12	-4.75
O=C(NCCCN1CCN(CCCNC(=O)Nc2ccc(Br)cc2)CC1)Nc1ccc(Br)cc1	23.4

// query Param item = O=C(OCC1OC(OCc2ccccc2)C(OC(=O)c2ccccc2)C1OC(=O)c1ccccc1)c1ccccc1 (centres undefined) ; retrieve measured growth inhibition.
// result -24.1

// query Repeat with CC(=O)Cc1nc(N)nc(Nc2ccc(Cl)c(Cl)c2)n1
// result -20.5

// query Repeat with CC(O)(c1ccncc1)c1cc2ccccc2n1S(=O)(=O)c1ccccc1 (centres undefined)
// result 6.15

// query Repeat with CCC(C(C)=O)C(C)C (centres undefined)
// result 13.3

// query Repeat with CCC(C)[N+](=O)[O-] (centres undefined)
// result 3.1

// query Repeat with CCCC[P+](CCCC)(CCCC)C(C(=O)OC)C(C(=O)OC)=C1SC(C(=O)OC)=C(C(=O)OC)S1 (centres undefined)
// result -45.5

// query Repeat with CCCCCCCCCC(=O)N/N=C/c1ccco1
// result 78

// query Repeat with O=C1c2ccccc2C(=O)c2c(NCCNC(=O)C3CCCN3)ccc(NCCNC(=O)C3CCCN3)c21 (centres undefined)
// result -85.5

// query Repeat with CCOC(=O)c1c(C(=O)Nc2ccccc2)c(-c2ccccc2)n(NC(N)=O)c1C
// result 2.95

// query Repeat with O=C1C2Cc3ccccc3CN2C(=O)N1CCN1CCCC1 (centres undefined)
// result 8

// query Repeat with NC(=O)N/N=C1\CCn2cccc21
// result -5.1

// query Repeat with [O-][n+]1ccccc1/C=C/c1cccc[n+]1[O-]
// result -18.4

// query Repeat with CCN(CC)CCNc1ccc2ncn3c4ccccc4c(=O)c1c23
// result 42.9

// query Repeat with Oc1ccccc1C=Nc1cccnc1
// result 8.7

// query Repeat with c1ccc(COc2ccc3c(c2)CN(Cc2ccccc2)CO3)cc1
// result -9.1

====

- experimental details: NCI Yeast Anticancer Drug Screen. Data for the rad50 strain (AID 155);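 note: 0% = growth of vehicle-only cultures of the same strain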
- particulars: S. cerevisiae rad50 strain growth inhibition; at 50.0 µM; hits give high values
About 79,000 compounds went through this panel and 15% of them were active in at least one assay; those are over-represented in the sample as a whole.
quantity name: growth inhibition (%)
# output: bare number, implied unit %

molecule	growth inhibition [%]
Cc1ccc(C(=O)NC(N)=O)cc1	12.4
CCCCc1ccc(NC(=O)c2cccnc2)cc1	3

// query Param item = COc1ccc(C23CCC(=O)N2CCS3)cc1 (centres undefined) ; retrieve measured growth inhibition.
// result -1.25

// query Repeat with Cc1cc(=O)[nH]c(NN)n1
// result 1

// query Repeat with COc1ccccc1NC(=O)C(=O)C(c1cnc2ccc([N+](=O)[O-])cc2n1)[N+](=O)[O-] (centres undefined)
// result 16.2

// query Repeat with CC1=CC(O)CC(C)(C)C1/C=C/C(C)=C/C=C/C(C)=C/C=C/C=C(C)/C=C/C=C(C)/C=C/C1=C(C)CC(O)CC1(C)C (centres undefined)
// result 14.4

Where these numbers come from: PubChem BioAssay (NCI)
